Reference source for all entries: patent US20110064726A1

EXPERIMENTAL SYSTEM: T1, cynomolgus monkey IgE (cynomolgus monkey)
T1 construct: serum was used as the source of IgE; also called cynomolgus IgE; cyno IgE
ASSAY NAME: capture ELISA, antibody coated; Test 1, Cyno 7 serum
Description: Wells were washed once with 150 μL/well wash buffer (0.05% Tween-20, Sigma, Cat. No. P7949/TBS) then blocked with 150 μL/well 1% BSA (Sigma, Cat. No. A7030) in TBS for 2 hours at room temperature. Wells were washed twice with 150 μL wash buffer. […] 504 OPD (Dako, Cat. No. S2045) was added to all wells and the color allowed to develop for 10 minutes before stopping the reaction with 50 μl 0.6M H₂SO₄ and the absorbance measured at 490 nm.
Record form. Attribute: IgE concentration detected. Fill in for each entry.

Incoming: Entry under review: 5.396.1 Hc-S103N Lc-K61R (antibody, human IgG2, kappa, V domains shown, human IgG2 kappa; the entries already hold the substitutions S103N (Hc) and K61R (Lc); also called 5.396.1 (S103N/K61R); 5.396.1 N/R) VH: QVQLQQWGAGLLKPSETLSLTCAVYGGSFSGYYWSWIRQPPGKGLEWIGEIHHSGSTNYNPSLKSRVTISVDTSKNQFSLKLSSVTAADTAVYYCARDNWNDNFYYYYGMDVWGQGTTVTVSS VL: DIQMTQSPSSLSASVGDRVTITCRASQGISNHLAWFQQKPGKAPKSLIYAASSLQSGVPSRFSGSGSGTDFTLTISSLQPEDFATYYCQQYNRHPFTFGPGTKVDIKR . Reported IgE concentration detected?
Outgoing: 0 ng/mL

Incoming: Value lookup for IgE concentration detected; key = 6.605.1 Hc-H3Q,M13K,D82E Lc-T25A,T53S (antibody, human IgG2, kappa, V domains shown, human IgG2 kappa; the entries already hold the substitutions; also called 6.605.1 (H3Q,M13K,D82E-T25A,T53S); 6.605.1 QKE/AS) VH: QVQLVQSGAEVKKPGASVKVSCKASGYTFTSYGISWVRQAPGQGLEWMGWISAYNGNTNYAQKLQGRITMTTDTSTSTAYMELRSLRSDDTAVYYCARDGDYYDPFDYWGQGTLVTVSS VL: DIQMTQSPSSLSASVGDRVTITCRASQSISNWLNWYQQKPGKAPKLLIYGASSLKSGVPSRFSGSESGTDFTLTISSLQPEDFATYYCQQSYSTPPTFGQGTKVEIKR
Outgoing: 0 ng/mL

Incoming: Item recombinant 6.605.1 (antibody, human IgG2, kappa, V domains shown, human IgG2 kappa; also called 6.605.1 (recombinant)) VH: QVHLVQSGAEVKMPGASVKVSCKASGYTFTSYGISWVRQAPGQGLEWMGWISAYNGNTNYAQKLQGRITMTTDTSTSTAYMDLRSLRSDDTAVYYCARDGDYYDPFDYWGQGTLVTVSS VL: DIQMTQSPSSLSASVGDRVTITCRTSQSISNWLNWYQQKPGKAPKLLIYGASTLKSGVPSRFSGSESGTDFTLTISSLQPEDFATYYCQQSYSTPPTFGQGTKVEIKR has what recorded IgE concentration detected?
Outgoing: 0 ng/mL
